Test system: human PBM cells
Assay: Cytotoxicity in human PBM cells
Conditions: read-out: Cytotoxicity in human PBM cells IC50
pIC50: −log10 of the molar value.

- Molecule: "O=C1CCCN2[C@@H](CC1)C[C@]13CN4CCCC/C=C\\CC[C@](O)(C=C(c5nccc6c5[nH]c5c(O)cccc56)C1CC4)[C@H]23 (stereo partly drawn) [ent-Manzamine F, ent-manzamine F]"
  pIC50: 4.39
- Molecule: "O=C1CCCN2[C@@H](CC1)C[C@]13CN4CCCC/C=C\\CC[C@](O)(C=C(c5nccc6c5[nH]c5ccccc56)[C@@H]1CC4)[C@H]23 [Manzamine E]"
  pIC50: 4.45
- Molecule: "O=CC1=C[C@@]2(O)CC/C=C\\CCCCN3CC[C@@H]1[C@]1(CC4/C=C\\CCCCN4[C@H]12)C3 (stereo partly drawn) [Ircinal A]"
  pIC50: 4.47

Cited source for all entries: patent US6900195B2
